Would you kindly list EC50 for each of these compounds?
Target: human RXFP1 (Homo sapiens, UniProt Q9HBX9)
Construct: expressed in transfected cells
Sequence (Q9HBX9 whole entry): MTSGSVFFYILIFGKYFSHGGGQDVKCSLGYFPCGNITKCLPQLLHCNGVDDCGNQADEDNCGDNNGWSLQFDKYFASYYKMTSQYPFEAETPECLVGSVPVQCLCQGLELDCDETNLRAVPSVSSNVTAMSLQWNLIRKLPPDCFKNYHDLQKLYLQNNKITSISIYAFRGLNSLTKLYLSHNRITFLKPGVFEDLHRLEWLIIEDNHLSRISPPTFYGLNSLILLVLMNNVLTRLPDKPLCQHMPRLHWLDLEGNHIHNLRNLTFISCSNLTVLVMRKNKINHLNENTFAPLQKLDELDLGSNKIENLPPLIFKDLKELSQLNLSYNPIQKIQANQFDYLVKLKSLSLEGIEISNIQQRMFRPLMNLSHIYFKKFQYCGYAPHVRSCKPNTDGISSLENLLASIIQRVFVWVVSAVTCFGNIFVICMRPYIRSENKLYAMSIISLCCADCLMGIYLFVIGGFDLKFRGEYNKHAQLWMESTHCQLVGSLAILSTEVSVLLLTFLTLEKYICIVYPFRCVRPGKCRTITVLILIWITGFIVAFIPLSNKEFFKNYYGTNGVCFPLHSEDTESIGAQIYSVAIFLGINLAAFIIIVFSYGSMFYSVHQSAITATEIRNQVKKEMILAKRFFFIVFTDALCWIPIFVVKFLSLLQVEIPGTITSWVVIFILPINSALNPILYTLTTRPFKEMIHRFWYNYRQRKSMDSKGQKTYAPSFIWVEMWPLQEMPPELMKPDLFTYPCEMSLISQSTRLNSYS
Experiment: RXFP1 cAMP assay (hRXFP1 HEK293 cAMP assay, HTRF)
Type: cell-based
Details: cAMP hRXFP1 HEK293 Assay EC50, HEK293 cells stably expressing human RXFP1, 30 min at room temperature
Description: RXFP1 Cyclic Adenosine Monophosphate (cAMP) Assays. […] Cells were dissociated and suspended in assay buffer. The assay buffer was HBSS buffer (with calcium and magnesium) containing 20 mM HEPES, 0.05% BSA, and 0.5 mM IBMX. […] The level of intracellular cAMP was determined using the HTRF HiRange cAMP assay reagent kit (Cisbio) according to manufacturer's instructions. […]
Numbers only here, please. The scale is µM.

## Task Fill in the recorded EC50 for this compound, with human RXFP1 (Homo sapiens, UniProt Q9HBX9) as test system: COc1ccc(-c2ccc(C(=O)O)cc2)cc1C(=O)N[C@H]1[C@@H](C(=O)Nc2ccc(F)c(C(F)(F)F)c2)[C@H]2CC[C@@H]1C2=C(C)C [compound 83]
## Result 0.066

## Task Fill in the recorded EC50 for this compound, with human RXFP1 (Homo sapiens, UniProt Q9HBX9) as test system: COc1cc(F)c(F)cc1C(=O)N[C@@H]1[C@H](C(=O)Nc2ccc(F)c(C(F)(F)F)c2)[C@@H]2CC[C@H]1C2C(C)C (some centres unmarked) [compound 975]
## Result 1

## Task Fill in the recorded EC50 for this compound, with human RXFP1 (Homo sapiens, UniProt Q9HBX9) as test system: CNC(=O)OC(C(=O)O)c1ccc(F)c(-c2ccc(OC)c(C(=O)N[C@@H]3C4CCC(/C4=C/C4CC4)[C@@H]3C(=O)Nc3ccc(F)c(C(F)(F)F)c3)c2)c1 (some centres unmarked) [Example 179]
## Result 0.005

## Task Fill in the recorded EC50 for this compound, with human RXFP1 (Homo sapiens, UniProt Q9HBX9) as test system: COc1ccc(-c2cc(C(=O)O)ccc2F)cc1C(=O)N[C@H]1[C@@H](C(=O)Nc2ccc(F)c(C(F)(F)F)c2)[C@H]2CC[C@@H]1/C2=C\c1ccccc1 [compound 80]
## Result 0.011

## Task Fill in the recorded EC50 for this compound, with human RXFP1 (Homo sapiens, UniProt Q9HBX9) as test system: COc1cc(F)c(F)cc1C(=O)N[C@@H]1C2CCC(/C2=C2\C=Cc3ccccc32)[C@@H]1C(=O)Nc1ccc(F)c(C(F)(F)F)c1 (some centres unmarked) [Example 33]
## Result 0.31

## Task Fill in the recorded EC50 for this compound, with human RXFP1 (Homo sapiens, UniProt Q9HBX9) as test system: COc1ccc(-c2cc(C(=O)O)ccc2F)cc1C(=O)N[C@@H]1C2CCC(/C2=C/C2CC2)[C@@H]1C(=O)Nc1ccc(C#N)c(C(F)(F)F)c1 (some centres unmarked) [compound 270]
## Result 0.025

## Task Fill in the recorded EC50 for this compound, with human RXFP1 (Homo sapiens, UniProt Q9HBX9) as test system: COc1cc(F)c(F)cc1C(=O)N[C@@H]1C2CCC(/C2=C/c2c(Cl)cccc2Cl)[C@@H]1C(=O)Nc1ccc(F)c(C(F)(F)F)c1 (some centres unmarked) [compound 69]
## Result 3.7

## Task Fill in the recorded EC50 for this compound, with human RXFP1 (Homo sapiens, UniProt Q9HBX9) as test system: COc1ccc(-c2cc(C(=O)O)ccc2F)cc1C(=O)N[C@H]1[C@@H](C(=O)Nc2ccc(F)c(C(F)(F)F)c2)[C@H]2CC[C@@H]1/C2=C/c1ccccc1 [compound 91]
## Result 0.36
